B1: Tudor domain-containing protein 3, residues 554 to 611; numbered along this chain, Q9H7E2 (parent)
chain: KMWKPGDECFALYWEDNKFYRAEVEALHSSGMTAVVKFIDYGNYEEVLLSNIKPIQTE

# Variants of: B1
# protocol details: abundance fitness (aPCA) (normalised: wild type 0, dead -1); higher = more abundant; growth selection in yeast, the domain comes from the species named
# experimental parameters: Homo sapiens
result type: abundance fitness
// return a plain number; no unit text

mutant_name=S30D result_type="abundance fitness" measured_value=-0.179
mutant_name=V36W result_type="abundance fitness" measured_value=-0.833
mutant_name=K37W result_type="abundance fitness" measured_value=-0.635
mutant_name=Y20D result_type="abundance fitness" measured_value=-1.01
mutant_name=A26M result_type="abundance fitness" measured_value=-0.065

Name the reported abundance fitness value associated with the variant R21T
-0.542

Record request: abundance fitness value, item M2R
-0.254
